// data source = patent US11230591

system-name: pentameric gH complex on infectious CMV (neutralization assays) (human cytomegalovirus)
assay-method-text: cell-based or functional assay
// assign Y if IC50 in ARPE-19 falls strictly below 10 ng/mL, else N (ties count as N)

Does 3-16 (antibody, V domains shown) VH: QVQVVQSGAEVKKPGASVMVSCKTSGYRFTIYSIAWMRQAPGQGLEWMGSINTYNGNTKYAEKFQGRVTMSRDTSTSTAYMEVRSLGSADTAMYYCARDAENWGFFDDWGQGTLVTVSS VL: EIVLTQSPGTVSLSPGERVTLSCRASQSVGRHLAWYQQKPGQPPRLLIYGASTRATGVPDRFSGSGSETEFTLAISSLQSEDFALYYCQQYNTWPYTFGQGTKLEIK have IC50 in ARPE-19 strictly under 10 ng/mL?
N

Given 1-150 (antibody, V domains shown) VH: QVQLVESGGGLVKPGGSLRLSCAASGFSFSAYYMSWIRQAPGKGLEWISYISSSGNTIYYTDSVKGRFTIARDNAKNSLYLQMNSLRAEDTGLYYCARDSYSKLADIEATEAFDVWGQGTMVAVSS VL: SYELTQPPSVSVAPGKTARITCGGNNIGSKSVHWYQQKPGQAPVMVIYYDSDRPSGIPERFSGSNSGNTATLTISRVEAGDEADYYCQVWDSGSDRVVFGGGTKLTVL , is recorded IC50 in ARPE-19 strictly lower than 10 ng/mL?
Y

Dear colleague, could you confirm whether IC50 in ARPE-19 of 3-7 (antibody, V domains shown) VH: QVQLVQSGAEVKKPGASVKVSCKTSGYTFNTYAISWVRQAPGQGLEWVGWINTYSGSTKYAQKVQGRVTMTTDTSTSTAYMELRGLRSDDTAVYYCARDGYNWGFLDFWGQGSLVTVSS VL: DIQMTQSPSSLSASVGDRVTITCRASQGISNYLAWYQQKPGKLPKLLIYAASTLQSGVPSRFSGSGSGTDFTLTISSLQPEDVASYYCQKYNSAPLTFGPGTKVDIK falls below 10 ng/mL? Thanks.
Y

In the record for 2-25 (antibody, V domains shown) VH: QVQLVESGAEVKKPGALVKVSCKASGYTFTNYAIHWVRQASGQRLEWMGWINAGRGNTKYSQKFQGRVTITRDTSASTAYMELSSLRSEDAAVYFCARDESTGDYYYYMDVWGKGTTVTVSS VL: SYELTQPPSVSVSPGQTASITCSGDRLDDKYASWYQQKAGQSPVLVIYQDNKRPSGIPERFSGSNSGNTATLTISGTQAMDEADYYCQAWDSDTYVFGTGTKVTVL , is IC50 in ARPE-19 less than 10 ng/mL?
Y

Lab note: IC50 in ARPE-19 threshold 10 ng/mL. Does this binder come in strictly under it? 2-18 (antibody, V domains shown) VH: EVQLVQSGGGLVQPGGSLRVSCAASGFSFSDHDMDWVRQAPGKGFEWVGRSRNKDYSSTTEYAASVRGRFTISRHTSEDLLYLELNTVKTEDTAVYFCARGPHHSDRSGYYGGTFDIWGQGTMVTVSS VL: DIQMTQSPSSVSASVGDRVIITCRASQGISSWLAWYQQKPGRAPRLLIYDASTLESGVPSRFSGRGSGTEFTLTINSLQPEDFATYYCQQGNMFPLTFGGGTKVEIK
Y
